Reference source: patent US8653087B2

# assayed-system: B-Raf (V600E)-kinase (Homo sapiens (Human), UniProt P15056, V600E)
# Sequence (P15056 whole entry V600E): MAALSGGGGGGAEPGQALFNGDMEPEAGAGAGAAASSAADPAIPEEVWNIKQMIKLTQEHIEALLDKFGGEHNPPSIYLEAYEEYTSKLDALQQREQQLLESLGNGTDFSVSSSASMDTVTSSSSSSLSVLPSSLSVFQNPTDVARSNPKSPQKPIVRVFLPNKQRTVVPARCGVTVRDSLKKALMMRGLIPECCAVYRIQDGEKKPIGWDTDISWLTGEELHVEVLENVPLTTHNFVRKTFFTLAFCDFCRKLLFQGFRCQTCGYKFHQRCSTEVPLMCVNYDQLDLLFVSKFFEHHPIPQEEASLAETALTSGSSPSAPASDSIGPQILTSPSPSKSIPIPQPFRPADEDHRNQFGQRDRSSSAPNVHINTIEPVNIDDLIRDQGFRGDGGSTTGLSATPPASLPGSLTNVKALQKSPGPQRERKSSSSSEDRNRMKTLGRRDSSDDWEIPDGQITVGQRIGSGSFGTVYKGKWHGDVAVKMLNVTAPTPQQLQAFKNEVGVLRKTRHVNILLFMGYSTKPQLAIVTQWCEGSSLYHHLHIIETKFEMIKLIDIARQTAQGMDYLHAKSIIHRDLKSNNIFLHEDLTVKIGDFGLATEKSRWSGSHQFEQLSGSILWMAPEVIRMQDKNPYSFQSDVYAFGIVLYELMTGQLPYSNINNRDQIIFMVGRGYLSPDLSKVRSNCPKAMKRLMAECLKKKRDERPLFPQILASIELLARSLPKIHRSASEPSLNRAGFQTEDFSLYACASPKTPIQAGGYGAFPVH
# test-name: Kinase test B-RAF (V600E)
# Assay type: biochemical
# cond: B-RAF (V600E) kinase test, 250 μM ATP
# Experimental: Kinase Test B-RAF (V600E) In a dilution series 10 μL of test substance solution are placed in a multiwell plate. The dilution series is selected so that generally a range of concentrations of 2 μM to 0.119 nM or 0.017 nM is covered. […] After the addition of 200 μL Enhancement Solution (Perkin Elmer, #4001-0010/#1244-105) the mixture is shaken for 10 min at RT and then measured in a Wallac Victor using the program “Delfia Time Resolved Fluorescence (Europium)”. […]
For each record, check the reported IC50: if it is below 5 nM write condition met, else write condition not met.

| molecule | label-class |
| --- | --- |
| Cc1ccc(C(=O)Nc2cc(OCCN(C)C)cc(C(F)(F)F)c2)cc1Nc1ncnc2cnc(NCCF)nc12 | condition met |
| Cc1ccc(NC(=O)c2cccc(C(F)(F)F)c2)cc1Nc1ncnc2c(N)nc(N3CCN(C4CCCC4)CC3)nc12 | condition not met |
| Cc1ccc(C(=O)Nc2cc(C(C)(C)C)on2)cc1Nc1ncnc2cnc(N3CCN(CC(C)C)CC3)nc12 | condition met |
| Cc1ccc(NC(=O)c2cccc(C(C)(C)C#N)c2)cc1Nc1ncnc2cnc(N(C)C3CCN(C)CC3)nc12 | condition met |
| COc1c(NC(=O)c2ccc(C)c(Nc3ncnc4cnc(N(C)CCN(C)C)nc34)c2)cc(C(C)(C)C)cc1NS(C)(=O)=O | condition not met |
| COc1ccc(NC(=O)c2ccc(F)c(Nc3ncnc4cnc(N(C)C)nc34)c2)cc1C(F)(F)F | condition met |
| Cc1ccc(C(=O)Nc2ccnc(C(C)(C)C)c2)cc1Nc1ncnc2cnc(N3CCC(CCN(C)C)CC3)nc12 | condition met |
| Cc1ccc(C(=O)Nc2cccc(C(C)(C)C#N)c2)cc1Nc1ncnc2cnc(N3CCN(C)CC3)nc12 | condition met |
| COc1ccc(C(=O)Nc2ccc(OC)c(C(F)(F)F)c2)cc1Nc1ncnc2cnc(N3CCCN(C)CC3)nc12 | condition met |
| Cc1ccc(C(=O)Nc2cc(C(C)(C)C)on2)cc1N(C)c1ncnc2cnc(NC3CCOC3)nc12 (centres unmarked) | condition not met |

* * *

# assayed-system: B-Raf (V600E)-kinase (Homo sapiens (Human), UniProt P15056, V600E)
# test-name: Kinase test B-RAF (V600E)
# Format: biochemical
# cond: B-RAF (V600E) kinase test, 250 μM ATP

| compound | readout-relation | IC50 (nM) |
| --- | --- | --- |
| COCCN1CCN(c2ncc3ncnc(Nc4cc(C(=O)Nc5cc(C(C)(C)C)nn5C)ccc4C)c3n2)CC1 | = | 12 |
| Cc1ccc(C(=O)Nc2cc(C(C)(C)C)on2)cc1Nc1ncnc2cnc(N3CCN(C(C)C)CC3)nc12 | = | 2 |
| Cn1nc(C(C)(C)C)cc1NC(=O)c1ccc(F)c(Nc2ncnc3cnc(N4CCOCC4)nc23)c1 | = | 2 |
| Cc1ccc(C(=O)Nc2cc(CN3CCCC3)cc(C(F)(F)F)c2)cc1Nc1ncnc2cnc(N3CCC(F)CC3)nc12 | = | 2 |
| Cc1ccc(C(=O)NCc2cccc(C(F)(F)F)c2)cc1Nc1ncnc2cnc(N3CCCN(C)CC3)nc12 | = | 245 |
| COc1ccc(NC(=O)c2ccc(C)c(Nc3ncnc4cnc(N(C)CC5CCCO5)nc34)c2)cc1C(F)(F)F (stereo not shown) | = | 3 |
| COc1ccc(NC(=O)c2ccc(F)c(Nc3ncnc4cnc(N5CCN(CC6CC6)CC5)nc34)c2)cc1C(F)(F)F | = | 6 |
| Cc1ccc(C(=O)Nc2cc(C(C)(C)C)n[nH]2)cc1Nc1ncnc2c(N)nc(N3CCC(N4CCN(C)CC4)CC3)nc12 | = | 55 |
| COc1ccc(C(=O)Nc2cc(C(C)(C)C)on2)cc1Nc1ncnc2cnc(N3CCCN(C)CC3)nc12 | = | 2 |
| Cc1cn(-c2ncc3ncnc(Nc4cc(C(=O)Nc5cc(C(C)(C)C)n[nH]5)ccc4C)c3n2)cn1 | = | 6 |
| Cc1ccc(C(=O)NCc2ccc(C(C)(C)C)cc2)cc1Nc1ncnc2cnc(N3CCCCC3)nc12 | = | 460 |
| Cc1ccc(C(=O)Nc2cc(C(C)(C)C)n[nH]2)cc1Nc1ncnc2cnc(N3CCCN(C)CC3)nc12 | = | 6 |
| Cc1ccc(C(=O)Nc2ccc(C#N)c(C(F)(F)F)c2)cc1Nc1ncnc2cnc(N(C)CCN(C)C)nc12 | = | 5 |
| Cc1ccc(C(=O)Nc2cc(C(C)(C)C)on2)cc1Nc1ncnc2cnc(N3CCN(CC4CCN(C)CC4)CC3)nc12 | = | 1 |
| Cc1ccc(C(=O)Nc2cccc(N(C)C)c2)cc1Nc1ncnc2cnc(N3CCCC3)nc12 | = | 10 |
| Cc1ccc(C(=O)Nc2cc(C(C)(C)C)on2)cc1Nc1ncnc2cnc(NC3CC(N4CCN(C)CC4)C3)nc12 (stereo not shown) | < | 1 |
| COc1ccc(NC(=O)c2ccc(C)c(Nc3ncnc4cnc(N5CCN(C)CC5)nc34)c2)cc1C(F)(F)F | = | 2 |
| Cc1ccc(C(=O)Nc2cccc(C(C)(C)C)c2)cc1Nc1ncnc2cnc(N3CCN(C)CC3)nc12 | = | 1 |
| COc1ccc(C(=O)Nc2ccc(OC)c(C(F)(F)F)c2)cc1Nc1ncnc2cnc(NCCN(C)C)nc12 | = | 8 |

* * *

A collection of compounds and their measured pIC50
# assayed-system: B-Raf (V600E)-kinase (Homo sapiens (Human), UniProt P15056, V600E)
# test-name: Kinase test B-RAF (V600E)
# Format: biochemical
# cond: B-RAF (V600E) kinase test, 250 μM ATP
pIC50: −log10 of the molar value.

| compound | pIC50 |
| --- | --- |
| Cc1ccc(C(=O)Nc2cc(C(C)(C)C)on2)cc1Nc1ncnc2cnc(NC3CCOC3)nc12 (stereo not shown) | > 9.00 |
| Cc1ccc(C(=O)Nc2cccc(C(F)(F)F)c2)cc1Nc1ncnc2c(N)nc(N3CCN(C)CC3)nc12 | > 9.00 |
| COc1ccc(C(=O)Nc2ccc(OC)c(C(F)(F)F)c2)cc1Nc1ncnc2cnc(N(C)CCN3CCCC3)nc12 | 8.52 |
| Cc1ccc(C(=O)NCC2CCOC2)cc1Nc1ncnc2cnc(N3CCN(C)CC3)nc12 (stereo not shown) | < 5.70 |

* * *

A collection of molecules and their measured pIC50
# assayed-system: B-Raf (V600E)-kinase (Homo sapiens (Human), UniProt P15056, V600E)
# test-name: Kinase test B-RAF (V600E)
# Format: biochemical
# cond: B-RAF (V600E) kinase test, 250 μM ATP
pIC50: −log10 of the molar value.

| given-smiles | readout-relation | pIC50 |
| --- | --- | --- |
| Cc1ccc(C(=O)Nc2ccc(F)c(C(F)(F)F)c2)cc1Nc1ncnc2cnc(N3CCOCC3)nc12 | = | 8.05 |
| Cc1ccc(C(=O)Nc2cc(N(C)CCN(C)C)cc(C(F)(F)F)c2)cc1Nc1ncnc2cnc(NCc3ccncc3)nc12 | = | 9.00 |
| Cc1ccc(C(=O)Nc2cccc(C(C)(C)C)c2)cc1Nc1ncnc2cnc(N3CCNCC3)nc12 | > | 9.00 |
| Cc1ccc(NC(=O)c2cccc(C(C)(C)C#N)c2)cc1Nc1ncnc2cnc(N3CCN(C4CC4)CC3)nc12 | = | 8.70 |
| Cc1ccc(C(=O)Nc2ccc(C#N)c(C(F)(F)F)c2)cc1Nc1ncnc2cnc(N3CCCC3)nc12 | = | 7.51 |

* * *

# assayed-system: B-Raf (V600E)-kinase (Homo sapiens (Human), UniProt P15056, V600E)
# test-name: Kinase test B-RAF (V600E)
# Type: biochemical
# cond: B-RAF (V600E) kinase test, 250 μM ATP
A collection of compounds and their measured IC50

| compound | IC50 |
| --- | --- |
| Cc1ccc(C(=O)Nc2cc(C(F)(F)F)ccn2)cc1Nc1ncnc2cnc(NC3CCOC3)nc12 (centres unmarked) [III-355] | < 1 nM |
| Cc1ccc(C(=O)Nc2cc(CN3CCCC3)cc(C(F)(F)F)c2)cc1Nc1ncnc2cnc(NC3CC3)nc12 [III-111] | < 1 nM |
| Cc1ccc(C(=O)Nc2cc(C(C)(C)C)on2)cc1Nc1ncnc2cncnc12 [V-1] | 2 nM |
| Cc1ccc(C(=O)Nc2cc(C(C)(C)C)on2)cc1Nc1ncnc2cnc(N3CCC(N4CCCC4)CC3)nc12 [III-490] | 2 nM |
| CNc1ncc2ncnc(Nc3cc(C(=O)Nc4cc(CN5CCCC5)cc(C(F)(F)F)c4)ccc3C)c2n1 [III-116] | < 1 nM |
| Cc1ccc(C(=O)Nc2cc(CN3CCCC3)cc(C(F)(F)F)c2)cc1Nc1ncnc2cnc(N(C)C)nc12 [III-115] | 2 nM |
| Cc1ccc(C(=O)Nc2cc(C(F)(F)F)ccn2)cc1Nc1ncnc2cnc(N3CCOCC3)nc12 [III-321] | < 1 nM |
| Cc1ccc(C(=O)Nc2cccc(C(C)(C)C)c2)cc1Nc1ncnc2cnc(N3CC[C@@H](F)C3)nc12 [III-244] | < 1 nM |
